test-system: UniProtKB P11712
Sequence (P11712 whole entry): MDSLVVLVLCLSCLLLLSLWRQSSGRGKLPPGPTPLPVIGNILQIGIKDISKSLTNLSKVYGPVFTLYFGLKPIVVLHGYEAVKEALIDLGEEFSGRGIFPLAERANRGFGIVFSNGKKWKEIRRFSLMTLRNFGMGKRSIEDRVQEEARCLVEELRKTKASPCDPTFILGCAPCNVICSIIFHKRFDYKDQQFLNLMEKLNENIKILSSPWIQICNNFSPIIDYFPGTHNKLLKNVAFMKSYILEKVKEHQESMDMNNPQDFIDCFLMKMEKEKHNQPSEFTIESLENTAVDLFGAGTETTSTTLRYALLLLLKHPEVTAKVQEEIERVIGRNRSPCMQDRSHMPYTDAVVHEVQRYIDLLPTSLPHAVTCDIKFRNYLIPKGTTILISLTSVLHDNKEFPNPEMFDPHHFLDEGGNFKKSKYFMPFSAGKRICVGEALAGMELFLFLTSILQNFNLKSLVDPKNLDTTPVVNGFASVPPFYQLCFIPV
pIC50: −log10 of the molar value.
Recorded pIC50, one value per entry.

Cc1cc(OCCC(C)(C)O)cc(C)c1-c1ccc(F)c2c1CC[C@H]2Nc1ccc(C2C[C@@H]2C(=O)O)cn1 (mixture of isomers) [Example 8] | < 4.30
Cc1ccc(Cl)c(-c2ccc(F)c3c2CC[C@H]3Nc2ccc([C@H]3C[C@@H]3C(=O)O)cn2)c1Cl [Example 51] | 4.77
COc1cc(OC)c(-c2ccc(F)c3c2CC[C@H]3Nc2ccc([C@H]3C[C@@H]3C(=O)O)cn2)c(OC)c1 [Example 48] | < 4.30
O=C(O)[C@H]1C[C@@H]1c1ccc(N[C@@H]2CCc3c(-c4ccccc4C(F)(F)F)ccc(F)c32)nc1 [Example 74] | 4.85
Cc1cc(-c2nnn(C)n2)cc(C)c1-c1ccc(F)c2c1CC[C@H]2Nc1ccc([C@H]2C[C@@H]2C(=O)O)cn1 [Example 3] | < 4.30
COc1cc(C)c(-c2ccc(F)c3c2CC[C@H]3Nc2ccc([C@H]3C[C@@H]3C(=O)O)cn2)c(C)c1 [Example 19] | 4.46
Cc1cc(OCC2(O)CCSCC2)cc(C)c1-c1ccc(F)c2c1CC[C@H]2Nc1ccc([C@H]2C[C@@H]2C(=O)O)cn1 [Example 73] | 4.35
Cc1cc(OCC(C)(C)O)cc(C)c1-c1ccc(F)c2c1CC[C@H]2Nc1ccc([C@H]2C[C@@H]2C(=O)O)cn1 [Example 29] | < 4.30

Provide one value: measured pIC50 of Cc1cc(OCC2(O)CCS(=O)(=O)CC2)cc(C)c1-c1ccc(F)c2c1CC[C@H]2Nc1ccc([C@H]2C[C@@H]2C(=O)O)cn1 [Example 64]
< 4.30

Provide one value: measured pIC50 of Cc1cc(C(N)=O)cc(C)c1-c1ccc(F)c2c1CC[C@H]2Nc1ccc([C@H]2C[C@@H]2C(=O)O)cn1 [Example 21]
< 4.30

Provide one value: measured pIC50 of Cc1cc(-c2ccnn2C)cc(C)c1-c1ccc(F)c2c1CC[C@H]2Nc1ccc([C@H]2C[C@@H]2C(=O)O)cn1 [Example 31]
4.57

Provide one value: measured pIC50 of Cc1cc(OCCC(C)(C)O)cc(C)c1-c1ccc(F)c2c1CC[C@H]2Nc1ccc([C@H]2C[C@@H]2C(=O)O)cn1 [Example 4]
< 4.30

Provide one value: measured pIC50 of Cc1cc(-c2nnn(CC(C)(C)O)n2)cc(C)c1-c1ccc(F)c2c1CC[C@H]2Nc1ccc([C@H]2C[C@@H]2C(=O)O)cn1 [Example 14]
< 4.30

Provide one value: measured pIC50 of Cc1cc(OCC2CCOC2)cc(C)c1-c1ccc(F)c2c1CC[C@H]2Nc1ccc([C@H]2C[C@@H]2C(=O)O)cn1 (some centres unmarked) [Example 16]
< 4.30
